- targetUnderTest: recombinant human KDM5B (Homo sapiens, UniProt Q9UGL1)
- Sequence (Q9UGL1 374-755 limits assumed): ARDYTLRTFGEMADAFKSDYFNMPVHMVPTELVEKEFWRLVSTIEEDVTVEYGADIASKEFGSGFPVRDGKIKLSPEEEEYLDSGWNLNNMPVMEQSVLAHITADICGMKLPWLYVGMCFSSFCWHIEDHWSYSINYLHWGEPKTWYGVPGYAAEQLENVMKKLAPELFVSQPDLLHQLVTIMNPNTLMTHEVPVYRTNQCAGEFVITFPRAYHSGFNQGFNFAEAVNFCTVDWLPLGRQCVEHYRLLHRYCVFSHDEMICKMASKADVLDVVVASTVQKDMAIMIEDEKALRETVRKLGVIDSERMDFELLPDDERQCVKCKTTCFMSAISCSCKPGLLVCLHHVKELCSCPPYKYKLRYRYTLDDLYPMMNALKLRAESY
- testDetails: 14CO2 capture enzymatic assay (decarboxylation of [1-14C] αKG), KDM5B
- Type: biochemical
- experimentalParameters: 10 μM [1-14C] αKG, 90 μM non-labeled αKG, 50 μM peptide substrate, 37° C., 1 hour, final 1% DMSO
property: pIC50
Notebook: values listed as pIC50 are -log10 of the concentration (mol/L).

[Q] Entry N#Cc1cc(Cc2cccc(-c3ccccc3)c2)nc(C(=O)CCC(=O)O)c1O [Example 51] needs its pIC50 filled in; supply it.
[A] 6.70

[Q] // Input: Cc1c(-c2cc(C#N)c(O)c(C(=O)CCC(=O)O)n2)cccc1C(F)(F)F [Example 95] . Output its pIC50 only.
[A] 6.46

[Q] Please look at this molecule and report its pIC50: N#Cc1cc(F)ccc1-c1cc(C#N)c(O)c(C(=O)CCC(=O)O)n1 [Example 87]
[A] 6.55

[Q] Give a short answer stating reported pIC50 for Cc1cc(Cl)cc(C)c1Cc1cc(C#N)c(O)c(C(=O)CCC(=O)O)n1 [Example 152] .
[A] 6.35

---

- targetUnderTest: recombinant human KDM4A (Homo sapiens, UniProt O75164)
- Sequence (O75164 1-359 limits assumed): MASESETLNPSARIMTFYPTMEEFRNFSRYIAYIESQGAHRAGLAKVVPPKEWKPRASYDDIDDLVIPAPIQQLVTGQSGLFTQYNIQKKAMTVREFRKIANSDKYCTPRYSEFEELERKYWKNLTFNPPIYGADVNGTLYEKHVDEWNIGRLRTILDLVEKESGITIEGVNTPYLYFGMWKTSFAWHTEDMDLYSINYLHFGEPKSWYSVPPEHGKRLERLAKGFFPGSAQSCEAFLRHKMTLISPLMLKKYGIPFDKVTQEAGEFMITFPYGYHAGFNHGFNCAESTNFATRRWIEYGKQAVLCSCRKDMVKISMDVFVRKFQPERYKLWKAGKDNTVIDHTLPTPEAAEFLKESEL
- testDetails: 14CO2 capture enzymatic assay (decarboxylation of [1-14C] αKG), KDM4A
- experimentalParameters: 10 μM [1-14C] αKG, 90 μM non-labeled αKG, 50 μM peptide substrate, 37° C., 1 hour, final 1% DMSO
- Experimental: Enzymatic activity was determined based on the capture of ^14CO2 released by the decarboxylation of [1-^14C] αKG (Zhang et al., Anal. Biochem., 1998, vol. 271, pp. 137-142). [1-^14C]alphaketoglutarate (αKG) was from Perkin-Elmer, H3K4me3 and H3K9me3 peptides were from Mimotopes. All other reagents were from Sigma. […] The dry filter paper was exposed to a storage phosphor screen for 24-72 hours and the images recorded using a Typhoon FLA 7000 Imager (Amersham Biosciences, Piscataway, NJ). […]
property: IC50 (µM)
Give your result in µM as a bare value.

[Q] Fill in reported IC50 for this entry: Cc1ccccc1Cc1cc(C#N)c(O)c(C(=O)CCC(=O)O)n1 [Example 36]
[A] 3.7

[Q] Recall and state the measured IC50 for N#Cc1cc(Cc2c(Cl)ccc(F)c2Cl)nc(C(=O)CCC(=O)O)c1O [Example 149] .
[A] 3.7

[Q] Report measured IC50; entry is Cc1cccc(F)c1Cc1cc(C#N)c(O)c(C(=O)CCC(=O)O)n1 [Example 148]
[A] 4.3

---

- targetUnderTest: recombinant human KDM5B (Homo sapiens)
- testDetails: 14CO2 capture enzymatic assay (decarboxylation of [1-14C] αKG), KDM5B
- experimentalParameters: 10 μM [1-14C] αKG, 90 μM non-labeled αKG, 50 μM peptide substrate, 37° C., 1 hour, final 1% DMSO
Please note: IC50 exactly at 200 nM is not met. Only values below 200 nM get met.

[Q] Quick check: does Cc1c(C#N)cccc1-c1cc(C#N)c(O)c(C(=O)CCC(=O)O)n1 [Example 98] have IC50 under 200 nM?
[A] not met

[Q] Is it true that IC50 reported for N#Cc1cc(Cc2ccccc2OC(F)(F)F)nc(C(=O)CCC(=O)O)c1O [Example 49] is less than 200 nM?
[A] not met

[Q] Is it true that IC50 reported for N#Cc1cc(C(F)(F)F)nc(C(=O)CCC(=O)O)c1O [Example 35] is less than 200 nM?
[A] met

[Q] Below 200 nM on IC50? Entry N#Cc1cc(Cc2c(Cl)ccc(F)c2Cl)cc(C(=O)CCC(=O)O)c1O [Example 134]
[A] met

[Q] Regarding COc1cccc(C(F)(F)F)c1Cc1cc(C#N)c(O)c(C(=O)CCC(=O)O)n1 [Example 61] , kindly confirm whether its IC50 is beneath 200 nM.
[A] not met

[Q] Record Cc1cc(F)cc(C)c1Cc1cc(C#N)c(O)c(C(=O)CCC(=O)O)n1 [Example 151] : is its IC50 strictly below 200 nM?
[A] not met

[Q] Dear colleague, could you confirm whether IC50 of COc1cccc(F)c1Cc1cc(C#N)c(O)c(C(=O)CCC(=O)O)n1 [Example 150] falls below 200 nM? Thanks.
[A] not met

[Q] Below 200 nM on IC50? Entry N#Cc1cc(Cc2ccccc2Cc2ccccc2)nc(C(=O)CCC(=O)O)c1O [Example 146]
[A] met

[Q] Determine if N#Cc1cc(Cc2c(Cl)cc(Cl)cc2Cl)cc(C(=O)CCC(=O)O)c1O [Example 131] shows IC50 strictly lower than 200 nM.
[A] met

[Q] Identify whether the compound N#Cc1cc(Cc2c(F)cccc2Cl)nc(C(=O)CCC(=O)O)c1O [Example 30] records IC50 below 200 nM.
[A] not met

[Q] Does the reported IC50 of N#Cc1cc(Cc2ccc(Cl)cc2)nc(C(=O)CCC(=O)O)c1O [Example 17] stay below 200 nM?
[A] met

[Q] Could you please tell me whether IC50 recorded for N#Cc1cc(Cc2cc(Cl)ccc2Cl)nc(C(=O)CCC(=O)O)c1O [Example 63] is less than 200 nM?
[A] not met

[Q] Please check: IC50 for N#Cc1cc(C(F)(F)F)c(O)c(C(=O)CCC(=O)O)n1 [Example 8] , strictly under 200 nM or not?
[A] not met

---

- targetUnderTest: recombinant human KDM4A (Homo sapiens, UniProt O75164)
- testDetails: 14CO2 capture enzymatic assay (decarboxylation of [1-14C] αKG), KDM4A
- experimentalParameters: 10 μM [1-14C] αKG, 90 μM non-labeled αKG, 50 μM peptide substrate, 37° C., 1 hour, final 1% DMSO
Provide the reported IC50 of each item.

[Q] Jot down IC50 (recombinant human KDM4A (Homo sapiens, UniProt O75164)) of Cc1ccc(-c2cc(C#N)c(O)c(C(=O)CCC(=O)O)n2)c(Cl)c1 [Example 84] .
[A] > 40 µM

[Q] Give measured IC50 for N#Cc1cc(-c2ccccc2Cl)cc(C(=O)CCC(=O)O)c1O [Example 119] (recombinant human KDM4A (Homo sapiens, UniProt O75164)).
[A] > 40 µM

[Q] Write down measured IC50 (recombinant human KDM4A (Homo sapiens, UniProt O75164)) for this compound. N#Cc1nc(Cc2ccccc2)cc(C(=O)CCC(=O)O)c1O [Example 160]
[A] > 40 µM

[Q] Look up and report IC50, with recombinant human KDM4A (Homo sapiens, UniProt O75164) as system, for N#Cc1cc(Cc2ccccc2)nc(C(=O)CCC(=O)O)c1O [Example 10]
[A] > 40 µM
